Origin of values: ChEMBL document CHEMBL4261617

biological target: Human immunodeficiency virus type 1 reverse transcriptase (Human immunodeficiency virus 1, UniProt Q72547); experiment: Inhibition of recombinant wild-type HIV1 GST-fused reverse transcriptase p66/p51 RNA-dependent DNA polymerase activity expressed in Escherichia coli assessed as reduction in biotin-dUTP incorporation using poly(rA)/oligo(dT)16 as template/primer after 40 mins by PicoGreen dye based spectrofluorometric analysis
endpoint_label: pIC50
Expect pIC50 as a plain number equal to -log10 of the molar concentration.

Kindly note the recorded pIC50 for CCOC(=O)c1cnc(N2CCN(Cc3ccc(S(N)(=O)=O)cc3)CC2)nc1Oc1c(C)cc(-c2ccc(C#N)cc2)cc1C , which is 4.20

Per the records, this compound ( CCOC(=O)c1cnc(N2CCN(Cc3cccc([N+](=O)[O-])c3)CC2)nc1Oc1c(C)cc(-c2ccc(C#N)cc2)cc1C ) has pIC50 equal to 3.94
